B1: Hairpin Ribozyme (parent)
chain: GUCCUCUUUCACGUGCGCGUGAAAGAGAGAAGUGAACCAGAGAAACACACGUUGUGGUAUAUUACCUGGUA

Variants of: B1
Test: self-cleavage, relative activity (ratio to wild type); higher = more cleavage; co-transcriptional
Listed next: entries and their corresponding self-cleavage.
When you answer, write just the number.

// worked examples, self-cleavage included
- Change: "G51U U58C"
  Measurement: 0.982
- Change: "C16A C48A"
  Measurement: 0.123
- Change: "U8A A43C"
  Measurement: 0.153
- Change: "G21U G69C"
  Measurement: 0.293
- Change: "U58A U70G"
  Measurement: 0.493

self-cleavage for G21C G27A is 0.186

self-cleavage for U2G U55C is 0.168

self-cleavage for U9C G15U is 0.879

self-cleavage for G15C G25C is 0.687

self-cleavage for G17A G19C is 0.969

self-cleavage for G25C U70G is 0.402

self-cleavage for G21A C48U is 0.0963

self-cleavage for G27A C46U is 0.127

self-cleavage for U33C A49U is 0.127

self-cleavage for A30U U52C is 0.135

self-cleavage for A30C A61G is 0.12

self-cleavage for G1C C48A is 0.129

self-cleavage for U14A G42C is 0.281

self-cleavage for G51A U67A is 0.291

self-cleavage for G1C G17U is 0.204

self-cleavage for C6A U60G is 0.4

self-cleavage for A11U C38G is 0.128
